- System Name: T1, cyno LAG3, full length, stably expressed on 293F cells (cyno)
- T1 construct: whole, on cells
- Assay Info: FACS on 293F-cyno LAG3 cells, 20 nM antibody
Measured Attribute: MFI at 20 nM (MFI)
I only need the number, in MFI, no unit after it.

Entry Antibody 023 (antibody, V domains shown, mouse hybridoma antibody) VH: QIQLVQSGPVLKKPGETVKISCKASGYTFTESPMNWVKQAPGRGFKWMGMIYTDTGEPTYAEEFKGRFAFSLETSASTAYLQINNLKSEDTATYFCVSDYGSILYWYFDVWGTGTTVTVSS VL: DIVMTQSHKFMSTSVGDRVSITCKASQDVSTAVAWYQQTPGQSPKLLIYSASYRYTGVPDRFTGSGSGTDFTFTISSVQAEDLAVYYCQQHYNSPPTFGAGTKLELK : reported MFI at 20 nM = ?
125
